System: DeltatarO mutant
Assay: S. aureus survival, RN4220 and DeltatarO strains – OD600, teichoic acid synthesis inhibitors, primary screen (AID 463173)
Conditions: S. aureus RN4220 wild type/DeltatarO growth, OD600, 18 h, active compounds read low, screened at 18.75 µg/mL (by protocol)
In all, about 52,000 compounds went through this assay and about 4,300 (8.3%) were called active. Many of the other results were omitted from the sample, so actives are more common in it than they were.
Response field label: string, one of Fulfilled (survival strictly below 70%) or Not fulfilled.

// below: answered compounds
[[record]]
record_smiles = "O=C(NCc1ccco1)C1CCN(C(=O)N2CCOc3ccccc32)CC1"
assigned_class = "Not fulfilled"

[[record]]
record_smiles = "CCn1cnc2sc(C(=O)Nc3ccccc3)c(C)c2c1=O"
assigned_class = "Not fulfilled"

[[record]]
record_smiles = "CC(=O)Nc1nonc1-c1nnc(SCC(=O)Nc2ccccc2Cl)n1C"
assigned_class = "Fulfilled"

[[record]]
record_smiles = "CCOc1ccc(NC(=O)CCS(=O)(=O)c2cc3c4c(c2)CCN4C(=O)CC3)cc1"
assigned_class = "Not fulfilled"


Task item: Report whether reported survival is lower than 70% (strictly) for CC(=O)Nc1nonc1-c1nnc(SCC(=O)Nc2ccc(C)c(Cl)c2)n1-c1ccccc1
Reply: Fulfilled

Task item: Here is the next compound: CC(C)C[C@H](N)c1nnc(SCc2ccc(Cl)cc2Cl)o1
Reply: Fulfilled

Task item: Here is the next compound: COC(=O)c1c(SC)nc2ccccc2c1OCc1ccc(C)cc1C
Reply: Fulfilled

====

Test system: DeltatarO mutant
Experiment: S. aureus survival, RN4220 and DeltatarO strains – OD600, teichoic acid synthesis inhibitors, primary screen (AID 463173)
Conditions: S. aureus RN4220 wild type/DeltatarO growth, OD600, 18 h, active compounds read low, screened at 18.75 µg/mL (by protocol)
Out of some 52,000 compounds screened, about 4,300 (8.3%) were called active. The list comes from a sample in which actives are over-represented; it also holds close analogues and randomly drawn compounds.
ASSAY METRIC: survival (%)
# number only, unit % dropped from output

[[record]]
record_smiles = "Cc1ccc(NC(=O)CN2C(=O)c3ccccc3Sc3ccc(C(=O)N4CCCC4)cc32)cc1"
quantitative_readout = 76

[[record]]
record_smiles = "O=C(NCCc1ccccc1)c1cc(Sc2ccc(F)cc2F)nc2ccccc12"
quantitative_readout = 98

[[record]]
record_smiles = "Cc1ccc(OCCSc2nnc(-c3cccs3)o2)cc1"
quantitative_readout = 53


Task item: # input molecule: Cc1c(Cl)cccc1NC(=O)c1ccc2c(c1)nnn2C1CCCC1 ; wanted: its survival
Reply: 108

Task item: Here is the next molecule: Cc1ccc(OCCSc2nnc(-c3cccs3)o2)cc1Cl
Reply: 45

====

Test system: DeltatarO mutant
Test: S. aureus survival, RN4220 and DeltatarO strains – OD600, teichoic acid synthesis inhibitors, primary screen (AID 463173)
Settings: S. aureus RN4220 wild type/DeltatarO growth, OD600, 18 h, active compounds read low, screened at 18.75 µg/mL (by protocol)
The campaign covered roughly 52,000 compounds. About 4,300 (8.3%) were called active. What follows is part of a selection rich in actives, with near analogues and random picks from the rest.
Reported survival is given for each of the following molecules.
# number only, unit % dropped from output

[[record]]
molecule = "Cc1ccc(Nc2cc(C)nc3nc(Cc4ccc(Cl)cc4)nn23)cc1"
quantitative_readout = 52


Task item: # input molecule: CCOC(=O)c1ccc(N2C(=O)c3[nH]nc(-c4ccccc4)c3C2c2ccc(C(C)C)cc2)cc1 (centres undefined) ; wanted: its survival
Reply: 105

Task item: Here is the next molecule: COc1cccc(N2CCN(C(=O)CCCn3c(=O)[nH]c4ccc(Br)cc4c3=O)CC2)c1
Reply: 53

Task item: Here is the next molecule: Cc1ccccc1C(=O)Nc1ccc2nc(SCC(=O)N3CCc4ccccc43)sc2c1
Reply: 106

Task item: Here is the next molecule: CCOc1ccc(C(=O)N2CC(=O)Nc3ccc(F)cc3C2c2ccc(F)cc2)cc1 (centres undefined)
Reply: 148

Task item: Here is the next molecule: Cc1ccc(Cl)cc1N1CCN(C(=O)CCCCCn2c(=O)[nH]c3ccccc3c2=O)CC1
Reply: 78

Task item: Here is the next molecule: COc1ccc(-c2nn(C)c3sc(C(=O)N4CCN(c5cc(Cl)ccc5C)CC4)cc23)cc1OC
Reply: 103

Task item: Here is the next molecule: COc1ccc(CCNC(=O)c2cc3c(-c4ccccc4F)nn(C)c3s2)c(OC)c1
Reply: 85

Task item: Here is the next molecule: Cc1cc(Nc2ccccc2F)n2nc(Cc3ccc(Cl)cc3)nc2n1
Reply: 44
